Biological target: NRAS G12C (Homo sapiens, UniProt P01111+P62937, G12C)
Sequence (P01111 whole entry G12C): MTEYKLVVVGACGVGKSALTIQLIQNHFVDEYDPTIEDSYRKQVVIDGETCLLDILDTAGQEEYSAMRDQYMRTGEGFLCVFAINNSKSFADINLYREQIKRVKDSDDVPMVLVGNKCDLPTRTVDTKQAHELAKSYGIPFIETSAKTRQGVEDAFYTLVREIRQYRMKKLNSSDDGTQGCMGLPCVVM
Sequence (P62937 whole entry): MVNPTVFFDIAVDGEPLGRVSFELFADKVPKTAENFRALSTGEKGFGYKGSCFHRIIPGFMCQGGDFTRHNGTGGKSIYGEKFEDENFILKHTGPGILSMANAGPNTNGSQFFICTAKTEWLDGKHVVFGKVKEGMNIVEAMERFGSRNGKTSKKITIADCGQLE
Assay: Disruption of BRAF RBD interaction with Ras (FRET / MOA assay, with Cyclophilin A)
Type: biochemical
Conditions: NRAS G12C; read-out: NRAS G12C FRET data IC50
readoutLabel: IC50

Entry under review: C=CC(=O)N1CC(OC[C@H](C(=O)N[C@H]2Cc3cccc(c3)-c3ccc4c(c3)c(c(-c3cccnc3[C@H](C)OC)n4CC(F)(F)F)CC(C)(C)COC(=O)[C@@H]3CCCN(N3)C2=O)C(C)C)C1 . Reported IC50? 1000 to 10000 nM

Check CCn1c(-c2cccnc2[C@H](C)OC)c2c3cc(ccc31)-c1csc(n1)C[C@H](NC(=O)[C@H](C(C)C)N(C)C(=O)N1CC(C3CN(C)C3)C1)C(=O)N1CCC[C@H](N1)C(=O)OCC(C)(C)C2 (atropisomer, axis not shown) too. 10 to 100 nM

Check CCn1c(-c2cccnc2[C@H](C)OC)c2c3cc(ccc31)-c1csc(n1)C[C@H](NC(=O)[C@H](C(C)C)N(C)C(=O)N1CCCC1)C(=O)N1CCC[C@H](N1)C(=O)OCC(C)(C)C2 (atropisomer, axis not shown) too. 10 to 100 nM

Check CCn1c(-c2cnccc2COC)c2c3cc(ccc31)-c1cc(O)cc(c1)C[C@H](NC(=O)[C@H](C(C)C)N(C)C(=O)[C@H]1CCN(C(=O)C3COC3)C1)C(=O)N1CCC[C@H](N1)C(=O)OCC(C)(C)C2 too. 100 to 1000 nM

Sourced from patent US20230233569A1
